B1: tRNA (parent)
chain: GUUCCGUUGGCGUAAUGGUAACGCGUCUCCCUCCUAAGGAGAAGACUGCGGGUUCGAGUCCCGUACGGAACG

# Variants of: B1
# test method notes: yeast fitness relative to wild type (ratio to wild type); higher = fitter; tRNA-Arg(CCU), competitive growth, 37 C, YPD
Fewer inactive variants are shown than the library holds.
yeast fitness overview
property label: yeast fitness

> print(dat)
                               residue.codes  qualifier  measurement
 1  GUUCCGUUGGCGUAAUGGUAACGCGUCUUCCCCCUAAGGAGAAGACUGCGGGUUCGAGUCCUGUACGGAUCG [C29U U32C C62U A70U]          ≤          0.5
 2  GUUCCGUUGGCGUAAUGAUAACGCGUCUCCCUCCUAGGGAGAAGACUGCGGGUUCGAGUCCCGUACGGAACG [G18A A37G]          =        0.547
 3  GUUCCGAUGGCGUCAUGGUGACGCGUUUCCCUCCUAAGGAGAAGUCUGCGGGUUCGAGUCCCGUACAGAACG [U7A A14C A20G C27U A45U G67A]          ≤          0.5
 4  GUUCCGUUGGCGCAAUGGUAACGCGUGUCCCUCCUAAGGAGAAGACUGCGGGUUCGAGUCCCCUACGGAACG [U13C C27G G63C]          =        0.548
 5  GUUCCGUUGGCGUAAUGGUAACGCGUUUGCAUCCUAAGGAGAAGACUGCGGGUUCGAGUCCCGUACGGAACG [C27U C29G C31A]          ≤          0.5
 6  GUUCCGUUGGCGUAAUGGUUACGCGUCUCCAUCCUAAGGAGAAGACUGCGGAUUCGAGUCCCGUAUGGAACG [A20U C31A G52A C66U]          =        0.527
 7  GUUCCGUUGGCGUAAUGGUAACGCGUCUCCCUCCUAGGGAGAAGACUGCGGGUUCGAGUCCCGUACGGACCG [A37G A70C]          =         0.76
 8  GUUCCGUUGACGUAAAGGUAACGCGUCUCCCUCCUAAGGAGAAGACUGAAGGUUCGAGUCCCGUACGCAACG [G10A U16A C49A G50A G68C]          ≤          0.5
 9  GUUCCGUUGGCGUAAUGGUAGCGCGUCUCCCUCCUAAGGAGAAGAUUGCGGGUUCCAGUCCCGUACGGUACG [A21G C46U G56C A69U]          ≤          0.5
10  GUUCUGUUGGCGUAAUGGUACCGCGUCUCCCUCCUAAGGAGACGACUGCGGGUUCGAGUCCCGUACGGAACG [C5U A21C A43C]          ≤          0.5
11  GUUACGUUGGCGUAAUGGUAACGCGUCUCCCUACUAAGGAGAAGACUGCGGGUUCGAGUACCGUACGGAACG [C4A C33A C60A]          ≤          0.5
12  GUUCCGUUGGCGUAAUGGUAACGCGCCUCCCUCCUAAGGAGAAGAUUGCGGGUUCGAGUCCUGUACGGAACG [U26C C46U C62U]          =        0.718
13  GUUCCGUCGGCGUAAUGGUAACGCGUCUCCCUCCUAAGCAGAAGACUGCGGGUUCGAGUCCCGUACGAAACG [U8C G39C G68A]          ≤          0.5
14  GUUCCGUCGGCGUAAUGGUAAAGCGUCUCCCUGCUAAGCAGAAGAUUGCGGGUUCGAGUCCCGUAUGGAACG [U8C C22A C33G G39C C46U C66U]          =        0.536
15  GUUCCGUUGGCGCAAUGGUAACGUGUCUCCCUCUUAAGGAGAAGACUGCGGGUUCGAGUCCCGUACGGAACG [U13C C24U C34U]          ≤          0.5
16  GUUCCGUUGGCGUAAUGGUAACGCGUCUCCCUCCCAAGGAGAAGACUGCAGGUUCGAGUCCCGUACAGAACG [U35C G50A G67A]          ≤          0.5
17  GUUCCGUUGGCGUAAGGGUAACGCGUCUCCCUCCUAAGGACAAGUCUGCGAGUUCGAGUCUCGUACGGACCG [U16G G41C A45U G51A C61U A70C]          =        0.639
18  GUCCCGUUGGCGUAAUGGAAACGCGUCACCCUCCUAAGGAGAAGACUGCGGGUUCGAGUGCCGUACGGAACG [U3C U19A U28A C60G]          ≤          0.5
19  GUUCCGUUGGCGUAAUGGUAACGCGUCUCCCUCCUAAGGAGAAGACCGCAGGUUCGAGUCCCGUACGCAACG [U47C G50A G68C]          =        0.539
20  GUUCCGUUGGCGUAAUGGUAACGAGUCUCCCUCCUAAGGUGAAGACUGUGGGUUCGAGUCCAGUAAGGAACG [C24A A40U C49U C62A C66A]          ≤          0.5
21  GUUCCGUUGGCGUAAUGGUAACGCGUCUCGCUCUUAAGGAGAAGCCUGCGGGGUCGAGUCGCGUACGGAACG [C30G C34U A45C U53G C61G]          ≤          0.5
22  GUUCCGUUGGCGUAAUGGUAACGCGUGUCGCUCCUAAGGAGAAGACUGCGGGUUCGAGUCCCGUACGGAACG [C27G C30G]          ≤          0.5
23  GUUCCGUUGGAGUAAUGGUAACGCGUCUCCCUCCUAAGGAGAAGACUGCGGCUUCGAGUCCCGUACAGAACG [C11A G52C G67A]          ≤          0.5
24  GUUCCGUUGGCGUAAUGGUAACGCGUCUCCCUCCUAAGGGGAAGACUGCGGGUCCGAGUCCCGUACGCAACG [A40G U54C G68C]          ≤          0.5
25  GUUCCGUUGGCGUAAUGGUGACGCGUCUCCCUCCUAAGGGGAAGACUGCCGGUUCGAGUCCCGUACGGAACG [A20G A40G G50C]          =        0.574
26  GUUCCGUUGGCGUAAUGGUAACGCGUGUCCCUGCUAAGGAGAAGACUGCGGGUUCGAGUUGCGUACGGAACG [C27G C33G C60U C61G]          =        0.503
27  GUUCCGUUGGCGUAAGGGUAAAGCGUCUCCCUCCUAAGGAGAAGACUGCGGGUUCGAGUCACGUACGGAACG [U16G C22A C61A]          ≤          0.5
28  GUUCCGUUGGCGAAAUGGCUACGCGUCUGCCUGCUAGGGAGAAGACUGUGGGUUCGAGUCCCGUAUGGAACG [U13A U19C A20U C29G C33G A37G C49U C66U]          =        0.601
29  GUUUCGUUGGCGUAAUGGUAACGCGGCUCCCUCCUAAGGAGAAGACUGCGGGUUCGAGUCCCGUACGGAACG [C4U U26G]          =        0.912
30  GUUCCGUUCGCGUAAUGGUAACGCGUCUCCCUCCUAAGGAGAAGACUGCGGGUUCGAGUCCCAUACGGAACG [G9C G63A]          =         0.72
31  GUUCCGUUGGCGUAAUGGUAACGGGUCUCCCUCGUAAGGAGAAGACAGAGGGUUCGAGUCCCGUGCGGAACG [C24G C34G U47A C49A A65G]          ≤          0.5
32  GUUCCGUUGGCGUAAUGGUAACGCGUCUCCCUCCUCAGGAGAAGACUCCGGGUGCGAGUCCCGUACGGAACG [A36C G48C U54G]          ≤          0.5
33  GUUCCGUUGACGUAAUCGUAACGCGUCUCCCUCCUAAGGAGAAGACUGCGGGUUCGAGUCCCGUACGGAACG [G10A G17C]          =        0.549
34  GUUCGGUUGGCGUAAUGGUAACGCGUCUCCCUCCUAAGGAGAAGACUGCGGGUUCGAGUGCGGUACCGUACG [C5G C60G C62G G67C A69U]          =        0.654
35  GUUUCGUAGGCGUAAUGGUAACGCCUCUCCCUCCUAAGGAGAUGACUGCGGGUUCGAGUGCCGUACGGAACG [C4U U8A G25C A43U C60G]          ≤          0.5
36  GUUCCGUUGGCGUAAUGGUAACGCGGCUCGCUCCUAAGGAGAAGACUGCGGGUUCGAGUCCCGUACGGAACG [U26G C30G]          =          0.6
37  GUACCGUUGGCGUAAUGGUAACGCGUCUCCCUCCUAAGGACAAGACUGCGGGUUCGAGUCCCGUAAGGAACG [U3A G41C C66A]          =        0.527
38  GUUCCCUAGGCGUAAUGGUAACGCGUCUCCCUCCUAAGGAGAAGACUGCGGGUUCGAGUCCCGUACGGAACG [G6C U8A]          =        0.674
39  GUUCCGUUGGCGUAAUGGUAACGCGUCUCCCUCCUAAGGAGAAGACUGCGGGUUCCAGUCCCGUACGGUUCG [G56C A69U A70U]          ≤          0.5
40  GUACCGUUGGCGUAAUGGUAAGGCGUCUCCGUCCUAAGGAGAAGACUGCGGGUUCGAGUCCCGUACGGAACG [U3A C22G C31G]          ≤          0.5
41  GUUCCGUGGGCGUAAUGGUAACGCGUCUCCCUCCUAAGGAGAAGACUGCGAGUUCGAGUCCCGUUCGGAACG [U8G G51A A65U]          ≤          0.5
42  GUUCCGUUGGUGUGAUGGUAACGCGUUUCCUUCCUCAGGAGAACGCUGCGGGUUCCAGUCCCGUACGGAACG [C11U A14G C27U C31U A36C G44C A45G G56C]          ≤          0.5
43  GUCCCGUUGGCGUAAUGGUAACGCGUAUCCCUCCUAAGGAGAAGACUGCGGGUUCGAGUCCCGUACGGAACG [U3C C27A]          =        0.706
44  GUUCCGUUGGCGUAAUGGUCACGCGGCUCCCUCCUAAGGAGAAGACUGCGGGUUCGAGUCCCGUACGGAACG [A20C U26G]          =        0.572
45  GUUCCGUUGGUGUAAUGGUAACGCGUCUCCUUCCCAAGGAGAAGACUGCGGGUUCGAGUCCCGUACGGUACG [C11U C31U U35C A69U]          ≤          0.5
46  GUUCCGUUGGCGUAAUGGUAAAGCGUCUCCCUCCUAAGGAGAAGACUGCCGGUUCGAGUCCCGUGCGGAACG [C22A G50C A65G]          ≤          0.5
